Where do the numbers come from? From ChEMBL document CHEMBL1800059.

Target: UniProt P32245
Experiment: Agonist activity at human MC4R expressed in CHO cells assessed as increase of alpha-MSH-stimulated cAMP release pretreated for 10 mins before alpha-MSH challenge measured after 40 mins
# Lookup of reported log10 of EC50 keyed by entry
Values are log10 of EC50 in nM.

Some molecules with recorded log10 of EC50:
CC(=O)NC(C)(C)[C@@H]1CC2(CCN(C(=O)[C@@H]3CN(C(C)(C)C)C[C@H]3c3ccc(F)cc3F)CC2)c2cc(Cl)c(C)cc21 0.66
Cc1cc2c(cc1Cl)C1(CCN(C(=O)[C@@H]3CN(C(C)(C)C)C[C@H]3c3ccc(F)cc3F)CC1)C[C@@H]2C(C)(C)C(=O)N1CC[C@H](O)C1 -0.43
Cc1cc2c(cc1Cl)C1(CCN(C(=O)[C@@H]3CN(C(C)(C)C)C[C@H]3c3ccc(F)cc3F)CC1)C[C@@H]2C(C)(C)C(=O)NCCO 0.11
Cc1cc2c(cc1Cl)C1(CCN(C(=O)[C@@H]3CN(C(C)(C)C)C[C@H]3c3ccc(F)cc3F)CC1)C[C@@H]2C(C)(C)C(=O)N1CCC1 -0.23
CNC(=O)C(C)(C)[C@H]1CC2(CCN(C(=O)[C@@H]3CN(C(C)(C)C)C[C@H]3c3ccc(F)cc3F)CC2)c2cc(Cl)c(C)cc21 -0.04

Here is another molecule to look at.
IN: For the molecule "Cc1cc2c(cc1Cl)C1(CCN(C(=O)[C@@H]3CN(C(C)(C)C)C[C@H]3c3ccc(F)cc3F)CC1)C[C@@H]2C(C)(C)C(=O)N1CCC(F)(F)C1" , report log10 of EC50.
OUT: 0.58

----------
Biological target: Melanocortin receptor 4 (Homo sapiens, UniProt P32245)
Sequence (P32245 whole entry): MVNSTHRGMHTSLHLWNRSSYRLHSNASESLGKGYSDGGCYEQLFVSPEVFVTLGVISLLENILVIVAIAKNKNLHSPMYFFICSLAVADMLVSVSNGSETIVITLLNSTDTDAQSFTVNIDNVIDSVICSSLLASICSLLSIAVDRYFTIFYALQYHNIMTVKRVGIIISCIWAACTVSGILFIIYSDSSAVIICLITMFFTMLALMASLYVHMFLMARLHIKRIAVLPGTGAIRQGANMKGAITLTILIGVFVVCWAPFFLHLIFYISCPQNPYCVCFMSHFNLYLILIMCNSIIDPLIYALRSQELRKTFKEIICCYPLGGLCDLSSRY
Experiment: Agonist activity at human MC4R expressed in CHO cells assessed as increase of alpha-MSH-stimulated cAMP release pretreated for 10 mins before alpha-MSH challenge measured after 40 mins
# Lookup of reported EC50 keyed by entry
Report the figure in nM without appending any unit label.

Cc1cc2c(cc1Cl)C1(CCN(C(=O)[C@@H]3CN(C(C)(C)C)C[C@H]3c3ccc(F)cc3F)CC1)C[C@@H]2C(C)(C)C(=O)NCC(F)(F)F 4.2

IN: For the compound "CCNC(=O)C(C)(C)[C@@H]1CC2(CCN(C(=O)[C@@H]3CN(C(C)(C)C)C[C@H]3c3ccc(F)cc3F)CC2)c2cc(Cl)c(C)cc21" , report EC50.
OUT: 32

IN: For the compound "CC(=O)N(C)C(C)(C)[C@H]1CC2(CCN(C(=O)[C@@H]3CN(C(C)(C)C)C[C@H]3c3ccc(F)cc3F)CC2)c2cc(Cl)c(C)cc21" , report EC50.
OUT: 4.3

----------
Target: Melanocortin receptor 3 (Mus musculus)
Sequence (P33033 whole entry): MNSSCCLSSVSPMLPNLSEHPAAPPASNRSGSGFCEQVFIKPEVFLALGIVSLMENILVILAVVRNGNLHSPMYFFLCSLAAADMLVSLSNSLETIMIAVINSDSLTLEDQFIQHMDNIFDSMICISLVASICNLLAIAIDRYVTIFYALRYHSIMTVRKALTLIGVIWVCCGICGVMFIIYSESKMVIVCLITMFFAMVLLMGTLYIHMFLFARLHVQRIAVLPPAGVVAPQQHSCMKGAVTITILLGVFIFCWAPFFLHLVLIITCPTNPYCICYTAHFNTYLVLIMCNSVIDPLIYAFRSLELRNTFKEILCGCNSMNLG
Assay: Agonist activity at mouse MC3 receptor
OBSERVED PROPERTY: EC50 (nM)
Report the figure in nM without appending any unit label.

IN: For the compound "CC(=O)NC(C)(C)[C@@H]1CC2(CCN(C(=O)[C@@H]3CN(C(C)(C)C)C[C@H]3c3ccc(F)cc3F)CC2)c2cc(Cl)c(C)cc21" , report EC50.
OUT: 1700

----------
Biological target: Melanocortin receptor 4 (Homo sapiens)
Test: Displacement of [125I]-NDP-R-MSH from human MC4R expressed in CHO cells after 1.5 hrs by scintillation counting
# Lookup of reported pIC50 keyed by entry
The quantity pIC50 is defined as the negative base-10 logarithm of the molar concentration.

Some molecules with recorded pIC50:
Cc1cc2c(cc1Cl)C1(CCN(C(=O)[C@@H]3CN(C(C)(C)C)C[C@H]3c3ccc(F)cc3F)CC1)C[C@@H]2C(C)(C)C(=O)N(C)C 9.15
Cc1cc2c(cc1Cl)C1(CCN(C(=O)[C@@H]3CN(C(C)(C)C)C[C@H]3c3ccc(F)cc3F)CC1)C[C@@H]2C(C)(C)C(=O)NCc1ccccc1 7.92
CC(=O)NC(C)(C)[C@H]1CC2(CCN(C(=O)[C@@H]3CN(C(C)(C)C)C[C@H]3c3ccc(F)cc3F)CC2)c2cc(Cl)c(C)cc21 8.35
CCNC(=O)C(C)(C)[C@H]1CC2(CCN(C(=O)[C@@H]3CN(C(C)(C)C)C[C@H]3c3ccc(F)cc3F)CC2)c2cc(Cl)c(C)cc21 8.51
Cc1cc2c(cc1Cl)C1(CCN(C(=O)[C@@H]3CN(C(C)(C)C)C[C@H]3c3ccc(F)cc3F)CC1)C[C@@H]2C(C)(C)C(=O)N1CC[C@@H](F)C1 8.80

IN: For the molecule "Cc1cc2c(cc1Cl)C1(CCN(C(=O)[C@@H]3CN(C(C)(C)C)C[C@H]3c3ccc(F)cc3F)CC1)C[C@@H]2C(C)(C)C(=O)NC(C)(C)C" , report pIC50.
OUT: 7.92

IN: For the molecule "CCN(C)C(=O)C(C)(C)[C@H]1CC2(CCN(C(=O)[C@@H]3CN(C(C)(C)C)C[C@H]3c3ccc(F)cc3F)CC2)c2cc(Cl)c(C)cc21" , report pIC50.
OUT: 8.68

IN: For the molecule "Cc1cc2c(cc1Cl)C1(CCN(C(=O)[C@@H]3CN(C(C)(C)C)C[C@H]3c3ccc(F)cc3F)CC1)C[C@H]2C(C)(C)C(=O)N(C)C" , report pIC50.
OUT: 7.23
